B1: Azoarcus group I ribozyme (parent)
chain: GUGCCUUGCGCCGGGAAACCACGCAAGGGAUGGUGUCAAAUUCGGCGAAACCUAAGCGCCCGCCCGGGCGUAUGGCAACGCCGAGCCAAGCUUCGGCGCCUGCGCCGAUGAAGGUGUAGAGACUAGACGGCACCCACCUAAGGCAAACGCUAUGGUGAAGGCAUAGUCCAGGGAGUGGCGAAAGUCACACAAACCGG

variants of: B1; experiment: reverse-splicing fitness (ratio to wild type); higher = more active; in vitro selection; Mg2+ level not given
Threshold rule: reverse-splicing fitness greater than or equal to 0.02 is T; below that, F.

hey, is reverse-splicing fitness for this one >= 0.02? C82G A111G A145C C150G C169G U176G
F

// inclusive: reverse-splicing fitness at least 0.02? input: A111G A120G A145U C150U U176G
F

Does reverse-splicing fitness meet or surpass 0.02 for C82U A111C A120G A145U C150A C169A U176C ?
F

Reported reverse-splicing fitness at or above 0.02? A111C A120U
T

Decide: is the reported value of reverse-splicing fitness for A111U A120U A145U C150A C169U U176A equal to or greater than 0.02?
F

Reported reverse-splicing fitness reaches at least 0.02 for A111C A145C C150A C169U U176G ?
F

For this variant, is measured reverse-splicing fitness 0.02 or higher? C82A A111U A120U A145C C150A C169A U176C
F

Form field: reverse-splicing fitness at least 0.02? Entry: A111G A120C C150U C169G U176G
F

Does the variant A111G A120U C150A C169G U176A have recorded reverse-splicing fitness that is 0.02 or more?
F

hey, is reverse-splicing fitness for this one >= 0.02? A111G A145U C150G
T

Reported reverse-splicing fitness at or above 0.02? C82G A111G A120C A145C C150A
F

# bool: reverse-splicing fitness of C82A A111U A145C C150A U176A >= 0.02
F

# bool: reverse-splicing fitness of C82A A120C A145U C169G U176C >= 0.02
F

Record C82G A111C A120U A145G C169U U176G ; criterion: reverse-splicing fitness no lower than 0.02. Met?
F

Kindly determine if reverse-splicing fitness recorded for C82U A111U A120U A145G C150G C169A U176G is above or exactly 0.02.
F

Evaluate C82G A111C C169U U176G : reverse-splicing fitness at minimum 0.02?
F

Dear colleague, could you confirm whether C82U A111U A120C C150A C169G U176A has reverse-splicing fitness at or above 0.02?
F

Assess whether reported reverse-splicing fitness for C82A A111U A120C U176G sits at 0.02 or higher.
F

Check the entry C82U A120C A145G C150U C169U U176C : does reverse-splicing fitness equal or exceed 0.02?
F

Is it the case that A120U C150A C169G U176G has reverse-splicing fitness reaching or exceeding 0.02?
F

Does A111U C169U U176G have a reported reverse-splicing fitness of at least 0.02?
F

Is it the case that C82U A111G A120C A145U C150U C169G U176G has reverse-splicing fitness reaching or exceeding 0.02?
F

I'd appreciate it if you could say whether C82A A120C A145G C150A C169G U176A has reverse-splicing fitness at least equal to 0.02.
F

Does C82U A111G A120C A145U C150U C169G have a reported reverse-splicing fitness of at least 0.02?
F

# check: reverse-splicing fitness of C82U A120U A145C U176C is greater than or equal to 0.02
T

Assess whether reported reverse-splicing fitness for C82A A111G A145G sits at 0.02 or higher.
T

Quick check, reverse-splicing fitness >= 0.02? C82A A111G A120G A145C U176G
F

Entry C82G A111C A120C A145G C150G C169U U176A : is its reverse-splicing fitness no less than 0.02?
F

Could you verify whether the entry C82A A111G A145C C150U C169G U176G shows reverse-splicing fitness of no less than 0.02?
F

Please check the record C82U A111G A120C A145U C150A and state if its reverse-splicing fitness is at or above 0.02.
F

State whether the measured reverse-splicing fitness reaches 0.02, counting equality as reaching it, for C82G A111U A145U C150G C169G
F

Would you say C82G A111U A120G C150A C169A U176C shows reverse-splicing fitness at minimum 0.02?
T

Reported reverse-splicing fitness reaches at least 0.02 for A120G A145U C169G U176C ?
T

Does the reported reverse-splicing fitness for C82G A111U A120U C150U U176C fall at or above the 0.02 mark?
F

Could you verify whether the entry C82G A111C A120U A145C C150G U176C shows reverse-splicing fitness of no less than 0.02?
F

reverse-splicing fitness >= 0.02 for C82A A111U C169G U176C ?
T

Record C82G A111C A120G A145C C169G ; criterion: reverse-splicing fitness no lower than 0.02. Met?
F

Is the recorded value of reverse-splicing fitness equal to or greater than 0.02 for this variant? C82U A111C A145G C150U U176G
F

Quick check: does C82A A120U C150A U176A have reverse-splicing fitness greater than or equal to 0.02?
F
